Taken from patent US20230322924A1.

# TEST TARGET: Human CD33 ECD-HSA (human)
# Sequence (chain, as listed by the source): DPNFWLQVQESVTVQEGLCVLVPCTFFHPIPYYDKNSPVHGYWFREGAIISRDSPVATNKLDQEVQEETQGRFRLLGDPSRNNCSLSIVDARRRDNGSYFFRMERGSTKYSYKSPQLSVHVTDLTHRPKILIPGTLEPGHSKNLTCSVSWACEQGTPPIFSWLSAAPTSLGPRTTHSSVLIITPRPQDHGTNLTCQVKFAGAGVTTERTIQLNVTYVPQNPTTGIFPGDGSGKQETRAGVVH
# EXPERIMENT NOTES: SPRi off-rate screen (IBIS MX96), mAb captured by anti-human Fc; column head prints KD
Please enter Criterion met where koff is greater than or equal to 0.0008 s⁻¹, and Criterion not met where it is lower.

* C33B89 (antibody, IgG1, V domains shown, huIgG1 F405L; also called C33F94; C33H90/C33L51) VH: QVQLQQSGPGLVKPSQTLSLTCAISGDSVSSNSAAWNWIRQSPSRGLEWLGRTYYRSKWYNDYALSVQSRITINPDTSKNQFSLQLNSVTPEDTAVYYCAREVAVAASFDYWGQGTLVTVSS VL: SYVLTQPPSVSVAPGQTARITCGGNNIGSKSVHWSQQKPGQAPVLVVYDDSDRPSGIPERFSGSNSGNTATLTISRVEAGDEADYYCQVWDSNSDHVVFGGGTKLTVL | Criterion met
* C33B66 (antibody, IgG1, V domains shown, huIgG1 F405L; also called C33F71; C33H55/C33L42) VH: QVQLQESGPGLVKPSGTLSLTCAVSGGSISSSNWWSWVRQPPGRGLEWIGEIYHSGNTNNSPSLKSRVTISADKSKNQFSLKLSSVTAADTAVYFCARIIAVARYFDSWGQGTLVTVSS VL: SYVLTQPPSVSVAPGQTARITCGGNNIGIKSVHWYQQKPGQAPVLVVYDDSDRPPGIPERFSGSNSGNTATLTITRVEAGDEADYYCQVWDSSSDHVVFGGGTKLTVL | Criterion met
* C33B124 (antibody, IgG1, V domains shown, huIgG1 F405L; also called C33F129; C33H73/C33L32) VH: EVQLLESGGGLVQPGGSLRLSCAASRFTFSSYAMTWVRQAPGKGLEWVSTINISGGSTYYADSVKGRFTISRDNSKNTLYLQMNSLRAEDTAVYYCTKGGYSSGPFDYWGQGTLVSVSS VL: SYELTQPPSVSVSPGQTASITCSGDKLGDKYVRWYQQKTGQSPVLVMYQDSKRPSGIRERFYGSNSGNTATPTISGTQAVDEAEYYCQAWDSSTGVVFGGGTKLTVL | Criterion not met
* C33B101 (antibody, V domains shown, huIgG1 F405L; 260 is used; also called C33F106; C33H69/C4LL152) VH: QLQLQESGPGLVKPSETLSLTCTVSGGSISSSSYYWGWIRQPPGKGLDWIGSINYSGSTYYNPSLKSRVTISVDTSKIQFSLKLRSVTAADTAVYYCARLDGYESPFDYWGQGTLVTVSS VL: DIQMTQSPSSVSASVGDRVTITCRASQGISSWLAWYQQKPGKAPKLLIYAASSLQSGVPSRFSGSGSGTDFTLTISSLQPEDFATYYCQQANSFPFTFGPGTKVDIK | Criterion not met
* C33B55 (antibody, IgG1, V domains shown, huIgG1 F405L; also called C33F60; C33H45/C33L11) VH: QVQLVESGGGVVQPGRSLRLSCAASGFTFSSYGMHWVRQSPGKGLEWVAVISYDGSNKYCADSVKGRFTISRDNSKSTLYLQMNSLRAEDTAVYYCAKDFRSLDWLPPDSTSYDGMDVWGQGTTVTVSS VL: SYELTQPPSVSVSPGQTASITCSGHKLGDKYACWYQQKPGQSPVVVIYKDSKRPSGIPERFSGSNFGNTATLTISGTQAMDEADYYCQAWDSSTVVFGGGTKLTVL | Criterion not met
* C33B88 (antibody, IgG1, V domains shown, huIgG1 F405L; also called C33F93; C33H88/C33L61) VH: QVQLVQSGSELKKPGASVKVSCKASGYTLTRSAMNWVRQAPGQGLEWMGWINTNTGNPTYAQGFTGRFVFSLDTSVNTAYLLISSLKTEDTAVYYCASDILPGYHEDYWGQGTLVTVSS VL: QSALTQPASVSGSPGQSITISCTGINSDVGSYDLVSWYQQHPGKAPKLLIYDGSERPSGVFGRFSGSKSDNTTSLTISGLQAEDEAAYYCCSYEVTTTYVVFGGGTKLTVL | Criterion met
* C33B63 (antibody, IgG1, V domains shown, huIgG1 F405L; also called C33F68; C33H51/C33L34) VH: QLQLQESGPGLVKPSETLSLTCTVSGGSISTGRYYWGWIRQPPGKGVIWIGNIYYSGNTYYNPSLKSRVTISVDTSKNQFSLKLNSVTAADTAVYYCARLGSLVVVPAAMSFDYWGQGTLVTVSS VL: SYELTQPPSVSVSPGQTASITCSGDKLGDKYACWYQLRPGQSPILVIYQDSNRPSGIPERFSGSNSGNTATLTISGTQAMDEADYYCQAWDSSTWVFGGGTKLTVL | Criterion met
* C33B125 (antibody, IgG1, V domains shown, huIgG1 F405L; also called C33F130; C33H84/C33L66) VH: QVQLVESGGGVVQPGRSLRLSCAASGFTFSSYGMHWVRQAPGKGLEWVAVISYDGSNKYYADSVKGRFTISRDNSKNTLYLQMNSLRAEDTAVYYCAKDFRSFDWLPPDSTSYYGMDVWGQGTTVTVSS VL: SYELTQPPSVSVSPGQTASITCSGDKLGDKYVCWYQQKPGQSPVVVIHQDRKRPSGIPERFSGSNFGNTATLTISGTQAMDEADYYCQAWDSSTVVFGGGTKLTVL | Criterion not met
* C33B72 (antibody, IgG1, V domains shown, huIgG1 F405L; also called C33F77; C33H65/C33L47) VH: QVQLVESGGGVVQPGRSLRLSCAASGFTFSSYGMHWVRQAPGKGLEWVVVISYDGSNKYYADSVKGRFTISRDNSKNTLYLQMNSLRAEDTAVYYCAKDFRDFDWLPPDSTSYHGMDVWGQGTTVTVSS VL: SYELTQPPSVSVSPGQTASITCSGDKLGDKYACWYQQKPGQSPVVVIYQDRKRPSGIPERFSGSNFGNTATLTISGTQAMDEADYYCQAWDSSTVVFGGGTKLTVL | Criterion not met
